# assay_system: ZFP SBS#1204 (synthetic)
# Sequence (chain, as listed by the source): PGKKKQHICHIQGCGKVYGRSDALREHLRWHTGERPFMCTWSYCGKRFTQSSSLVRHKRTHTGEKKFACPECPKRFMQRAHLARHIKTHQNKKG
# run_description: EMSA
# cond: tags: MBP fusion
parameter: Kd (nM)
// units = nM; emit number, no label

Enquiry: Reported Kd for GGAGTACTG (dsDNA) DNA 1: GGAGTACTG DNA 2: CAGTACTCC : what is it?
Return: 4.38

Sourced from patent US20030068675
